Experiment: Drug uptake in Wistar Han rat plasma at 10 mg/kg, ip after 1 hr by LC-MS/MS analysis
Assay type: ADME, organism-based
measured parameter: concentration at 1 h (ng/mL)
I only need the number, in ng/mL, no unit after it.

Note to self: concentration at 1 h recorded for CN(C)CCN(CC1CCCN(C2Cc3ccccc3C2)C1)C(=O)c1ccc2ccccc2c1.Cl (racemic) was 169

====

Experiment: Apparent permeability across basolateral to apical side in human Caco2 cells at 100 uM after 20 mins by fluorescein dye based HPLC-UV analysis
Assay type: ADME, cell-based
Conditions: Caco-2
Recorded Papp B→A at 20 min, 100 µM values for a group of compounds are listed next.
I only need the number, in ×10⁻⁶ cm/s, no unit after it.

CN(C)CCN(CC1CCCN(C2Cc3ccccc3C2)C1)C(=O)c1ccc2ccccc2c1.Cl (racemic)
46.1

Now for the compound whose Papp B→A at 20 min, 100 µM we want.
Note to self: Papp B→A at 20 min, 100 µM recorded for COC(=O)c1ccccc1-c1c2ccc(=N)cc-2oc2cc(N)ccc12.Cl was 7.7
